# MIC per record follows
system: Bacillus subtilis; experiment: Antimicrobial activity against Bacillus subtilis ATCC 6633 after 24 hrs by microdilution technique; format: functional; conditions: ATCC 6633, 24 h
Quick note: unit goes after the number.

Recorded results for 4 compounds are shown here.
Prompt: Identify the measured MIC of `Cc1c(-n2c(-c3ccccc3)c(-c3ccccc3)c3c(=N)[nH]cnc32)n(C)n(-c2ccccc2)c1=O` for Bacillus subtilis.
Completion: 512 µg/mL

Prompt: Identify the measured MIC of `CC(=O)Nc1c(C#N)c(-c2ccccc2)c(-c2ccccc2)n1-c1c(C)c(=O)n(-c2ccccc2)n1C` for Bacillus subtilis.
Completion: 256 µg/mL

Prompt: Identify the measured MIC of `CC1(C)S[C@@H]2[C@H](NC(=O)[C@H](N)c3ccc(O)cc3)C(=O)N2[C@H]1C(=O)O` for Bacillus subtilis.
Completion: 64 µg/mL

Prompt: Identify the measured MIC of `Cc1c(-n2c(-c3ccccc3)c(-c3ccccc3)c3c(=O)[nH]cnc32)n(C)n(-c2ccccc2)c1=O` for Bacillus subtilis.
Completion: 256 µg/mL

Here's the next entry for you.
Prompt: Identify the measured MIC of `Cc1c(-n2c(N)c(C#N)c(-c3ccccc3)c2-c2ccccc2)n(C)n(-c2ccccc2)c1=O` for Bacillus subtilis.
Completion: 512 µg/mL

---

# inhibition in vivo per record follows
test system: Rattus norvegicus; test: Antiinflammatory activity in male Sprague-Dawley rats assessed as inhibition of carrageenan-induced rat paw edema dosed subcutaneously equimolar to 70 mg/kg, sc ibuprofen administered 1 hr before carrageenan challenge measured 3 hrs post carrageenan challenge relative to control; assay type: functional; settings: route subcutaneous
Quick note: unit goes after the number.

Prompt: Identify the measured inhibition in vivo of `Cc1c(-n2c(-c3ccccc3)c(-c3ccccc3)c3c(=O)[nH]cnc32)n(C)n(-c2ccccc2)c1=O` for Rattus norvegicus.
Completion: 60%

Prompt: Identify the measured inhibition in vivo of `Cc1nc2c(c(-c3ccccc3)c(-c3ccccc3)n2-c2c(C)c(=O)n(-c3ccccc3)n2C)c(=O)[nH]1` for Rattus norvegicus.
Completion: 13.2%

Prompt: Identify the measured inhibition in vivo of `Cc1c(-n2c(-c3ccccc3)c(-c3ccccc3)c3c2ncn2ncnc32)n(C)n(-c2ccccc2)c1=O` for Rattus norvegicus.
Completion: 9.9%

---

tested on: Rattus norvegicus; assay: Antiinflammatory activity in male Sprague-Dawley rat assessed as inhibition of carrageenan-induced rat paw edema dosed subcutaneously equimolar to 70 mg/kg, sc ibuprofen administered 1 hr before carrageenan challenge measured 1 hr post carrageenan challenge relative to control; type: functional; conditions: route subcutaneous
Tag: yes if measured inhibition in vivo is not below 2%, no if it is.

Look over these answered cases.
Prompt: Does `Cc1c(-n2c(-c3ccccc3)c(-c3ccccc3)c3c(=O)[nH]cnc32)n(C)n(-c2ccccc2)c1=O` have a reported inhibition in vivo of at least 2%?
Completion: yes

Prompt: Does `CC(=O)Nc1c(C#N)c(-c2ccccc2)c(-c2ccccc2)n1-c1c(C)c(=O)n(-c2ccccc2)n1C` have a reported inhibition in vivo of at least 2%?
Completion: no

Prompt: Does `Cc1c(-n2c(N)c(C(N)=O)c(-c3ccccc3)c2-c2ccccc2)n(C)n(-c2ccccc2)c1=O` have a reported inhibition in vivo of at least 2%?
Completion: yes

Prompt: Does `Cc1c(-n2c(-c3ccccc3)c(-c3ccccc3)c3c(=N)[nH]cnc32)n(C)n(-c2ccccc2)c1=O` have a reported inhibition in vivo of at least 2%?
Completion: no

Continuing:
Prompt: Does `Cc1c(-n2c(N)c(C#N)c(-c3ccccc3)c2-c2ccccc2)n(C)n(-c2ccccc2)c1=O` have a reported inhibition in vivo of at least 2%?
Completion: yes

Prompt: Does `Cc1c(-n2c(-c3ccccc3)c(-c3ccccc3)c3c(N/N=C/c4ccccc4)ncnc32)n(C)n(-c2ccccc2)c1=O` have a reported inhibition in vivo of at least 2%?
Completion: yes

Prompt: Does `Cc1c(-n2c(-c3ccccc3)c(-c3ccccc3)c3c(=S)[nH]cnc32)n(C)n(-c2ccccc2)c1=O` have a reported inhibition in vivo of at least 2%?
Completion: no

Prompt: Does `Cc1c(-n2c(-c3ccccc3)c(-c3ccccc3)c3c(NN)ncnc32)n(C)n(-c2ccccc2)c1=O` have a reported inhibition in vivo of at least 2%?
Completion: yes

Prompt: Does CC(C)Cc1ccc(C(C)C(=O)O)cc1 (stereo not drawn) have a reported inhibition in vivo of at least 2%?
Completion: yes

Prompt: Does `Cc1nc2c(c(-c3ccccc3)c(-c3ccccc3)n2-c2c(C)c(=O)n(-c3ccccc3)n2C)c(=O)[nH]1` have a reported inhibition in vivo of at least 2%?
Completion: yes

Prompt: Does `Cc1c(-n2c(-c3ccccc3)c(-c3ccccc3)c3c2ncn2ncnc32)n(C)n(-c2ccccc2)c1=O` have a reported inhibition in vivo of at least 2%?
Completion: no
